Kindly supply the reported IC50 values for the records listed here.
Test system: Human immunodeficiency virus 1
experimental.details: Antiviral activity against HIV1 HXB2 infected in human HeLaP4-2 cells assessed as inhibition of single-cycle viral replication
Format: functional, organism-based
stated.conditions: Human immunodeficiency virus 1, HXB2, HeLaP4-2
State just the number; it will be interpreted in µM.

## Task What measured IC50 is associated with `NCc1ccc(-c2cccc(-c3cc(=O)n(O)c4ncccc34)c2)cc1` on Human immunodeficiency virus 1?
## Result 0.62

## Task What measured IC50 is associated with `NCc1ccc(-c2cccc(Cc3cc(=O)n(O)c4ncccc34)c2)cc1` on Human immunodeficiency virus 1?
## Result 0.43

## Task What measured IC50 is associated with `NCc1cccc(-c2cccc(-c3cc(=O)n(O)c4ncccc34)c2)c1` on Human immunodeficiency virus 1?
## Result 0.85

## Task What measured IC50 is associated with `O=c1cc(-c2cccc(-c3ccccc3)c2)c2cccnc2n1O` on Human immunodeficiency virus 1?
## Result 34

## Task What measured IC50 is associated with `O=c1ccc2cccnc2n1O` on Human immunodeficiency virus 1?
## Result 4.5

## Task What measured IC50 is associated with `NCc1ccc(-c2ccc(Cc3cc(=O)n(O)c4ncccc34)cc2)cc1` on Human immunodeficiency virus 1?
## Result 0.19

## Task What measured IC50 is associated with `NCc1ccccc1-c1cccc(-c2cc(=O)n(O)c3ncccc23)c1` on Human immunodeficiency virus 1?
## Result 2.8

## Task What measured IC50 is associated with `CCOC(=O)c1c(O)c2cccnc2n(O)c1=O` on Human immunodeficiency virus 1?
## Result 2.5

---

Kindly supply the reported pIC50 values for the records listed here.
system: Human immunodeficiency virus type 1 integrase (Human immunodeficiency virus 1, UniProt Q7ZJM1)
Sequence (Q7ZJM1 whole entry): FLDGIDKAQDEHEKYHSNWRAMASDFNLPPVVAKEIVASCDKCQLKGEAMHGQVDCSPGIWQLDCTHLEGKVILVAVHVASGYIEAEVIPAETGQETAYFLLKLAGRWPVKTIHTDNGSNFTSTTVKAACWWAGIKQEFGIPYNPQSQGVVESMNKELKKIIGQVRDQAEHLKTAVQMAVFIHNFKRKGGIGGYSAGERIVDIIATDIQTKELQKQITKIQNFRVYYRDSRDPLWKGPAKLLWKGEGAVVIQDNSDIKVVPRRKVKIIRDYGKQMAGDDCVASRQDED
// pIC50 is dimensionless: -log10 of concentration (M)

## Task Could you tell me which pIC50 is on file for `NCc1ccc(-c2ccc(Cc3cc(=O)n(O)c4ncccc34)cc2)cc1` ?
## Result 4.62

## Task Could you tell me which pIC50 is on file for `NCc1ccc(-c2cccc(-c3cc(=O)n(O)c4ncccc34)c2)cc1` ?
## Result 5.11

## Task Could you tell me which pIC50 is on file for `NCc1ccc(-c2cccc(Cc3cc(=O)n(O)c4ncccc34)c2)cc1` ?
## Result 5.09

## Task Could you tell me which pIC50 is on file for `O=c1ccc2cccnc2n1O` ?
## Result 4.82

## Task Could you tell me which pIC50 is on file for `NCc1ccccc1-c1cccc(-c2cc(=O)n(O)c3ncccc23)c1` ?
## Result 4.74

## Task Could you tell me which pIC50 is on file for `O=c1cc(-c2cccc(-c3ccccc3)c2)c2cccnc2n1O` ?
## Result 5.62

## Task Could you tell me which pIC50 is on file for `NCc1cccc(-c2cccc(-c3cc(=O)n(O)c4ncccc34)c2)c1` ?
## Result 5.04

---

Kindly supply the reported CC50 values for the records listed here.
experimental.details: Cytotoxicity against human HeLaP4-2 cells by alamar blue assay
Type: cell-based
State just the number; it will be interpreted in µM.

## Task Could you tell me which CC50 is on file for `NCc1ccccc1-c1cccc(-c2cc(=O)n(O)c3ncccc23)c1` ?
## Result 9.1

## Task Could you tell me which CC50 is on file for `NCc1ccc(-c2ccc(Cc3cc(=O)n(O)c4ncccc34)cc2)cc1` ?
## Result 3.3

## Task Could you tell me which CC50 is on file for `NCc1ccc(-c2cccc(Cc3cc(=O)n(O)c4ncccc34)c2)cc1` ?
## Result 4.6

## Task Could you tell me which CC50 is on file for `NCc1ccc(-c2cccc(-c3cc(=O)n(O)c4ncccc34)c2)cc1` ?
## Result 2.3

## Task Could you tell me which CC50 is on file for `O=c1ccc2cccnc2n1O` ?
## Result 20

## Task Could you tell me which CC50 is on file for `NCc1cccc(-c2cccc(-c3cc(=O)n(O)c4ncccc34)c2)c1` ?
## Result 4.9

---

Kindly supply the reported selectivity ratio values for the records listed here.
experimental.details: Therapeutic index, ratio of CC50 for human HeLaP4-2 cells to IC50 for HIV1 HXB2 infected in human HeLaP4-2 cells
Type: cell-based
stated.conditions: HeLaP4-2 cells infected with HIV1 HXB2, read-out: Ratio CC50/IC50
Give a plain numeric answer without units written out.

## Task Could you tell me which selectivity ratio is on file for `NCc1ccccc1-c1cccc(-c2cc(=O)n(O)c3ncccc23)c1` ?
## Result 3

## Task Could you tell me which selectivity ratio is on file for `NCc1ccc(-c2cccc(-c3cc(=O)n(O)c4ncccc34)c2)cc1` ?
## Result 3

## Task Could you tell me which selectivity ratio is on file for `O=c1ccc2cccnc2n1O` ?
## Result 4

## Task Could you tell me which selectivity ratio is on file for `NCc1cccc(-c2cccc(-c3cc(=O)n(O)c4ncccc34)c2)c1` ?
## Result 3

## Task Could you tell me which selectivity ratio is on file for `NCc1ccc(-c2ccc(Cc3cc(=O)n(O)c4ncccc34)cc2)cc1` ?
## Result 17

## Task Could you tell me which selectivity ratio is on file for `NCc1ccc(-c2cccc(Cc3cc(=O)n(O)c4ncccc34)c2)cc1` ?
## Result 11

---

system: UniProt:Q72547
experimental.details: Inhibition of wild type HIV1 reverse transcriptase RNasH activity
pIC50: −log10 of the molar value.
Label yes (1) when pIC50 >= 7; otherwise no (0).

## Task Reported pIC50 reaches at least 7 for `NCc1ccc(-c2ccc(Cc3cc(=O)n(O)c4ncccc34)cc2)cc1` ?
## Result yes (1)

## Task Reported pIC50 reaches at least 7 for `O=c1ccc2cccnc2n1O` ?
## Result no (0)

## Task Reported pIC50 reaches at least 7 for `O=c1cc(-c2cccc(-c3ccccc3)c2)c2cccnc2n1O` ?
## Result no (0)

## Task Reported pIC50 reaches at least 7 for `NCc1ccccc1-c1cccc(-c2cc(=O)n(O)c3ncccc23)c1` ?
## Result no (0)

---

Kindly supply the reported IC50 values for the records listed here.
experimental.details: Inhibition of HIV1 reverse transcriptase D443N mutant RNA-dependent DNA plymerase activity
Parameters: species or system Human immunodeficiency virus 1
State just the number; it will be interpreted in µM.

## Task Could you tell me which IC50 is on file for `NCc1ccccc1-c1cccc(-c2cc(=O)n(O)c3ncccc23)c1` ?
## Result 36

## Task Could you tell me which IC50 is on file for `NCc1ccc(-c2cccc(-c3cc(=O)n(O)c4ncccc34)c2)cc1` ?
## Result 16

## Task Could you tell me which IC50 is on file for `NCc1ccc(-c2cccc(Cc3cc(=O)n(O)c4ncccc34)c2)cc1` ?
## Result 11

## Task Could you tell me which IC50 is on file for `O=c1cc(-c2cccc(-c3ccccc3)c2)c2cccnc2n1O` ?
## Result 9

## Task Could you tell me which IC50 is on file for `NCc1cccc(-c2cccc(-c3cc(=O)n(O)c4ncccc34)c2)c1` ?
## Result 5.1

## Task Could you tell me which IC50 is on file for `NCc1ccc(-c2ccc(Cc3cc(=O)n(O)c4ncccc34)cc2)cc1` ?
## Result 13

---

system: Human immunodeficiency virus type 1 reverse transcriptase (Human immunodeficiency virus 1, UniProt Q72547)
Kindly supply the reported pIC50 values for the records listed here.
// pIC50 is dimensionless: -log10 of concentration (M)

## Task Could you tell me which pIC50 is on file for `CCOC(=O)c1c(O)c2cccnc2n(O)c1=O` ?
## Result 6.96

## Task Could you tell me which pIC50 is on file for `NCc1ccc(-c2cccc(Cc3cc(=O)n(O)c4ncccc34)c2)cc1` ?
## Result 7.00

## Task Could you tell me which pIC50 is on file for `NCc1ccc(-c2cccc(-c3cc(=O)n(O)c4ncccc34)c2)cc1` ?
## Result 6.89

## Task Could you tell me which pIC50 is on file for `NCc1cccc(-c2cccc(-c3cc(=O)n(O)c4ncccc34)c2)c1` ?
## Result 6.82
